Target: Human plasma kallikrein (Homo sapiens)
Construct: yields a heavy chain (371 amino acids) and a light chain (248 amino acids); purchased Enzyme Research Laboratories
Sequence (P03952 391-638 limits assumed): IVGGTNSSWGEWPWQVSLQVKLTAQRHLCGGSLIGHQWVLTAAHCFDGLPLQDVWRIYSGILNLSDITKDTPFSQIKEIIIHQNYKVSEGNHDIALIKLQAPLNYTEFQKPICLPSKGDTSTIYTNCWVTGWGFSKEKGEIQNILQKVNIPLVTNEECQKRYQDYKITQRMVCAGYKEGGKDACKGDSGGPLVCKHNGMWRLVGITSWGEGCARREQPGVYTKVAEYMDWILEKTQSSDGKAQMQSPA
Sequence (P03952 20-390 partner limits assumed): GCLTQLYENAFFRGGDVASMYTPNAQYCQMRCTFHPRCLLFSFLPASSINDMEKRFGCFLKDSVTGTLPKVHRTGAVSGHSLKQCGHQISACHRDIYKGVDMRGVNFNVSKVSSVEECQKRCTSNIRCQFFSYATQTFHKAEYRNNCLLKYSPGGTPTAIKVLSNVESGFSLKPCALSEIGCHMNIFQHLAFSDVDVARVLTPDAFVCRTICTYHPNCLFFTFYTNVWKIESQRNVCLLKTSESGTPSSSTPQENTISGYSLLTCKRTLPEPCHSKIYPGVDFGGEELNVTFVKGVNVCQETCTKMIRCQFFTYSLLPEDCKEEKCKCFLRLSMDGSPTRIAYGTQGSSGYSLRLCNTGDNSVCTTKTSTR
Assay: Kallikrein Assay
Format: biochemical
Conditions: Plasma Kallekrein IC50; Examples 1-19 table; read-out: PK IC50
ASSAY_METRIC: IC50 (nM)

{"columns": ["COMPOUND", "IC50 (nM)"],
 "data": [
  ["N#Cc1ccc(Cl)cc1-c1ccc(C(Cc2ccccc2)c2nc3cc(C(=O)O)ccc3[nH]2)[n+]([O-])c1 (racemic) [Example 17]", 335],
  ["N#Cc1ccc2[nH]c(C(Cc3ccccc3)c3ccc(-c4cc(Cl)ccc4-n4cnnn4)c[n+]3[O-])nc2c1 (racemic) [Example 16]", 151],
  ["O=C(O)c1ccc2[nH]c(C(Cc3ccccc3)c3ccc(-c4c(F)ccc(Cl)c4F)c[n+]3[O-])nc2c1 (stereo in doubt) [Example 2]", 182]
]}

a: [O-][n+]1cc(-c2cc(Cl)ccc2-n2cnnn2)ccc1[C@H](Cc1ccc(F)cc1)c1nc2cc(F)ccc2[nH]1 [Example 14]
b: O=C(O)c1ccc2[nH]c([C@H](Cc3ccccc3)c3ccc(-c4cc(Cl)ccc4-n4cnnn4)c[n+]3[O-])nc2c1 [Example 6]
c: O=C(O)c1ccc2[nH]c(C(Cc3ccccc3)c3ccc(-c4cc(Cl)ccc4-n4cnnn4)c[n+]3[O-])nc2c1 (racemic) [Example 4]
Sort entries by IC50 from minimum to maximum value. The labels, placed in the requested order, form the answer. b, c, a
(b: 28.4 nM, c: 52.7 nM, a: 809 nM)

----------
Biological target: human Factor XIa (Homo sapiens, UniProt P03951)
Construct: purified human Factor XIa; purchased Sekisui Diagnostics
Sequence (P03951 388-625 limits assumed): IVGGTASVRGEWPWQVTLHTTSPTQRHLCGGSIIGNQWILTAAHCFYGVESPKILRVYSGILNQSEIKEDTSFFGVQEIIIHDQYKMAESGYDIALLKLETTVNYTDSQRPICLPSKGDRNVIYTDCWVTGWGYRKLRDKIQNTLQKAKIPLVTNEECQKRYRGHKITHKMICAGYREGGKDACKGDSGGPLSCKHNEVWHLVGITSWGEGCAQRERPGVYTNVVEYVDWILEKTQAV
Sequence (P03951 19-387 partner limits assumed): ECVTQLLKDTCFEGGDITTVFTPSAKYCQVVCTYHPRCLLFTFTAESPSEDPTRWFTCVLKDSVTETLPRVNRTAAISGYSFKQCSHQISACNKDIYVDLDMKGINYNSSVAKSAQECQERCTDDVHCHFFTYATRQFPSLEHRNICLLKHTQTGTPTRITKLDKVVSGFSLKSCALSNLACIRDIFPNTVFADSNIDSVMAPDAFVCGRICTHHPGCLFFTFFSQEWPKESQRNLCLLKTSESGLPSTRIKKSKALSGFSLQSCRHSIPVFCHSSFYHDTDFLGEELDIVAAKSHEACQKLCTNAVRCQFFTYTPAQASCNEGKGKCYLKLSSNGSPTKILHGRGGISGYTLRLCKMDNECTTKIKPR
Test: Factor XIa Assay
Assay type: biochemical
Settings: Examples 20-28 table, read-out: F11a IC50
ASSAY_METRIC: IC50 (µM)

A: NC(=O)c1ccc(Cl)cc1-c1ccc([C@H](Cc2ccccc2)c2nc3cc(F)ccc3[nH]2)[n+]([O-])c1 [Example 23]
B: O=C(O)c1ccc2[nH]c(C(Cc3ccccc3)c3ccc(-c4cc(Cl)ccc4C(=O)O)c[n+]3[O-])nc2c1 (racemic) [Example 25]
C: NC(=O)c1ccc(Cl)cc1-c1ccc([C@@H](Cc2ccccc2)c2nc3cc(F)ccc3[nH]2)[n+]([O-])c1 [Example 22]
D: [O-][n+]1cc(-c2c(-n3cnnn3)ccc(Cl)c2F)ccc1[C@H](Cc1ccccc1)c1nc2cc(F)ccc2[nH]1 [Example 21]
In this exercise, place the 4 molecules in ascending sequence of their recorded IC50. The labels, placed in the requested order, form the answer. D, B, C, A
(D: 0.0118 µM, B: 0.054 µM, C: 0.154 µM, A: 1 µM)

----------
Molecular target: human Factor XIa (Homo sapiens, UniProt P03951)
Construct: purified human Factor XIa; purchased Sekisui Diagnostics
Assay: Factor XIa Assay
Assay type: biochemical
Conditions: Examples 1-19 table, read-out: F11a IC50
ASSAY_METRIC: IC50 (nM)

{"columns": ["COMPOUND", "IC50 [nM]"],
 "data": [
  ["O=C(O)c1ccc2[nH]c(C(Cc3ccccc3)c3ccc(-c4c(F)ccc(Cl)c4F)c[n+]3[O-])nc2c1 (stereo in doubt) [Example 3]", 138],
  ["O=C(O)c1ccc2[nH]c(C(Cc3ccccc3)c3ccc(-c4cc(Cl)ccc4-n4cnnn4)c[n+]3[O-])nc2c1 (racemic)", 0.45]
]}

P: N#Cc1ccc(Cl)cc1-c1ccc(C(Cc2ccccc2)c2nc3cc(C(=O)O)ccc3[nH]2)[n+]([O-])c1 (racemic)
Q: O=C(O)c1ccc2[nH]c([C@@H](Cc3ccccc3)c3ccc(-c4cc(Cl)ccc4-n4cnnn4)c[n+]3[O-])nc2c1
R: O=C(O)c1ccc2[nH]c([C@H](Cc3ccccc3)c3ccc(-c4cc(Cl)ccc4-n4cnnn4)c[n+]3[O-])nc2c1
S: [O-][n+]1cc(-c2cc(Cl)ccc2-n2cnnn2)ccc1C(Cc1ccccc1)c1nc2cc(F)ccc2[nH]1 (stereo in doubt) [Example 8]
Could you please sort these 4 entries by IC50 from high to low? The labels, placed in the requested order, form the answer. P, Q, S, R
